MEASURED_ON: full-length beta-Catenin (Uniprot ID P35222) (Homo sapiens, UniProt P35222)
Construct: 10 nM full-length beta-Catenin (Uniprot ID P35222)
Sequence (P35222 whole entry): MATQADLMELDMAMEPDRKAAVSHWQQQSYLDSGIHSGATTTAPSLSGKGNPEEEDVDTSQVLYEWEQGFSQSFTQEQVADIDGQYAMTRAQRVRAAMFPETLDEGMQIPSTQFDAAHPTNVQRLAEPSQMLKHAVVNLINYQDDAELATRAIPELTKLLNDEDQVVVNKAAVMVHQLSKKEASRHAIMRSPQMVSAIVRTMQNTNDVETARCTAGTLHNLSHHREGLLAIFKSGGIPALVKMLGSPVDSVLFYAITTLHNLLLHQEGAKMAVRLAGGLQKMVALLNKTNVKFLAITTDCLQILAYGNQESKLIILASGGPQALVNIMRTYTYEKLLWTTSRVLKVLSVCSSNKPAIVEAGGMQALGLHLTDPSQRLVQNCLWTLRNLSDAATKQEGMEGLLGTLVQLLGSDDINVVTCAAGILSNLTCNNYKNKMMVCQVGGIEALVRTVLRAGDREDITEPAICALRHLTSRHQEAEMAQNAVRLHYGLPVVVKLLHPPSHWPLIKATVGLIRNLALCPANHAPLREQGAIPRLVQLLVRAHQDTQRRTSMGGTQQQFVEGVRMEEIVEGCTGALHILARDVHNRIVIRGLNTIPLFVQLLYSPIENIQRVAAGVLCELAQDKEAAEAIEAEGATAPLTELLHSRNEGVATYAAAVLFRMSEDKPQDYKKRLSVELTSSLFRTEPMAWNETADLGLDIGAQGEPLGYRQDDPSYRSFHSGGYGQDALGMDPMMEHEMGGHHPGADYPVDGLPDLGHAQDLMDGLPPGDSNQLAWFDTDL
PROCEDURE_DETAILS: Fluorescence polarization IC50 (beta-catenin / 5FAM-TCF4 10-53 competition)
Type: binding
ASSAY_CONDITIONS: read-out: beta-Catenin FP IC50
Mark True for IC50 under 0.008 µM, False if at or over.

CC(=O)N1CCC[C@]12CC=CCCCC1(CCCC=CCCCOC(=O)N3CC[C@@](C(=O)N[C@@H](Cc4ccccc4Cl)C(=O)N[C@@H](Cc4csc5ccccc45)C(=O)N[C@@H](C(N)=O)[C@H](C)O)(C3)NC(=O)[C@H](CC(N)=O)NC(=O)[C@H](Cc3ccccc3)NC(=O)[C@H](C)NC(=O)[C@H](C)NC(=O)[C@H](CC(=O)O)NC(=O)[C@H](CCC(=O)O)NC1=O)NC(=O)[C@H](CC(C)(C)C)NC(=O)[C@H](CC(=O)O)NC2=O (some centres unmarked)
False
CC(=O)N1CCC[C@]12CC=CCCCC1(CCCC=CCCCOC(=O)N3CC[C@@](C(=O)N[C@@H](Cc4ccsc4)C(=O)N[C@@H](Cc4csc5ccccc45)C(=O)N[C@@H](Cc4c[nH]cn4)C(N)=O)(C3)NC(=O)[C@H](CC(N)=O)NC(=O)[C@H](Cc3ccccc3)NC(=O)[C@H](C)NC(=O)[C@H](C)NC(=O)[C@H](CC(N)=O)NC(=O)[C@H](CC(=O)O)NC1=O)NC(=O)[C@H](CC(C)(C)C)NC(=O)[C@H](CC(=O)O)NC2=O (some centres unmarked)
True
CC(=O)N1CCC[C@]12CC=CCCCC1(CCCC=CCCCOC(=O)N3CC[C@@](C(=O)N[C@@H](Cc4ccccc4Cl)C(=O)N[C@@H](Cc4csc5ccccc45)C(=O)N[C@@H](CO)C(N)=O)(C3)NC(=O)[C@H]([C@@H](C)O)NC(=O)[C@H](Cc3ccccc3)NC(=O)[C@H](C)NC(=O)[C@H](C)NC(=O)[C@H](CC(=O)O)NC(=O)[C@H](CC(=O)O)NC1=O)NC(=O)[C@H](Cc1cccc3ccccc13)NC(=O)[C@H](CC(=O)O)NC2=O (some centres unmarked)
False
CC(=O)N1CCC[C@]12CC=CCCCC1(CCCC=CCCCOC(=O)N3CC[C@@](C(=O)N[C@@H](Cc4ccsc4)C(=O)N[C@@H](Cc4csc5ccccc45)C(=O)N[C@@H](Cc4ccc(O)cc4)C(N)=O)(C3)NC(=O)[C@H](CC(N)=O)NC(=O)[C@H](Cc3ccccc3)NC(=O)[C@H](C)NC(=O)[C@H](C)NC(=O)[C@H](CN(CC(=O)O)CC(F)(F)F)NC(=O)[C@H](CC(=O)O)NC1=O)NC(=O)[C@H](CC(C)(C)C)NC(=O)[C@H](CC(=O)O)NC2=O (some centres unmarked) [I-952]
False

Ref: patent US20240116985A1
